target: Indoleamine 2,3-dioxygenase 1 (Homo sapiens); assay: Inhibition of IDO1 (unknown origin) using L-tryptophan incubated for 30 mins by microplate reader method
Observation Type: IC50 (nM)
Give bare numbers, in nM.

Query: Which IC50 value is on record for CC1=CCC[C@@H](C)[C@]1(C)C[C@]1(C)[C@@H](O)CC[C@]2(C)[C@@]3(C)CC[C@]4(C)c5c(C(O)C(=O)O)ccc(O)c5C[C@H]4[C@]3(C)CC[C@]21C (stereo partly specified) ?
Reply: 240

###

For each entry below, report its IC50 value.
molecular target: Indoleamine 2,3-dioxygenase 1 (Homo sapiens, UniProt P14902); assay: Inhibition of IDO1 (unknown origin)
Sequence (P14902 whole entry): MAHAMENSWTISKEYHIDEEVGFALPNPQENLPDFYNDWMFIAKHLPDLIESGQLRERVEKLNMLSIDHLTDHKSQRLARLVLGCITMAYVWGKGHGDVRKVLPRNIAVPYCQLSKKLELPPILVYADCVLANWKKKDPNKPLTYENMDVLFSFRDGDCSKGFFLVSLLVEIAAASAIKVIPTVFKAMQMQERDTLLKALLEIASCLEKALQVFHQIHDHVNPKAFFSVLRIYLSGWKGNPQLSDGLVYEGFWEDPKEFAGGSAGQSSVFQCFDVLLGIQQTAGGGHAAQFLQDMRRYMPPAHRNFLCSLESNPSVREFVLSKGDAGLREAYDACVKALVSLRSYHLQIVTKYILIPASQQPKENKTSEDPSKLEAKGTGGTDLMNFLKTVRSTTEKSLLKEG

Here are 5 compounds together with their reported answers.
Query: Which IC50 value is on record for CCC(C(=O)Nc1ccc(Cl)cc1)[C@H]1CC[C@H](Oc2ccnc3ccccc23)CC1 (some centres undefined) ?
Reply: > 50 nM

Query: Which IC50 value is on record for CC(C(=O)Nc1ccc(Cl)cc1)[C@H]1CC[C@H](Oc2ccnc(C(F)(F)F)c2)CC1 (some centres undefined) ?
Reply: > 250 nM

Query: Which IC50 value is on record for Cn1cc(-c2cc(F)c(NC(=O)NCC3c4ccccc4-c4cncn43)cc2F)cn1 (centres undefined) ?
Reply: 16 nM

Query: Which IC50 value is on record for `O=C(Nc1ccc(Cl)cc1)N[C@H]1CC[C@H](c2ccnc3ccc(F)cc32)CC1` ?
Reply: < 50 nM

Query: Which IC50 value is on record for CC(C)Oc1ccc(S(=O)(=O)NC2CCCc3cnccc32)cc1 (centres undefined) ?
Reply: < 50 nM

Give measured IC50 for every item shown.
1. Cn1cc(-c2ccc(NC(=O)N3CCC(C(=O)/C(=N/O)Nc4ccc(F)c(Br)c4)CC3)cc2)cn1
2. OC1CCC(C(F)(F)CC2c3c(F)cccc3-c3cncn32)CC1 (centres undefined)
3. C[C@@H](NC(=O)c1ccc(Cl)cc1)[C@H]1CC[C@@H](c2ccnc3ccc(F)cc32)CC1
4. O/N=C(/CCC1CCCCC1)Nc1cccc(Cl)c1
5. C[C@@H](NS(=O)(=O)c1cccc(Cl)c1)[C@H]1CC[C@@H](c2ccnc3ccc(F)cc32)CC1
6. N#Cc1ccc(NC(=O)NCC2c3ccccc3-c3cncn32)cc1 (centres undefined)
7. O=C1CCC(N2C(=O)c3cccc(NCCOCCOCCOCCOCCOCCOCCOCCNCCNc4nonc4/C(=N/O)Nc4cccc(Br)c4)c3C2=O)C(=O)N1 (centres undefined)
8. Nc1nonc1/C(=N/O)N1Cc2ccccc2C1

Reply:
4 nM
< 100 nM
< 50 nM
< 1 nM
< 50 nM
< 50 nM
1070 nM
1.57 nM

Give measured IC50 for every item shown.
1. O=S(=O)(Nc1cccc2cnccc12)c1ccc2c(c1)OCCO2
2. O[C@@H](C[C@H]1c2ccccc2-c2cncn21)c1cc2ccoc2cc1F
3. CC(C(=O)Nc1ccc(Cl)cc1)N1CCC(Oc2ccnc3ccc(F)cc23)CC1 (centres undefined)
4. COC1CN(CCNc2nc3c(F)c(F)cc(/C(=N/O)Nc4cccc(Br)c4)c3[nH]2)C1

Reply:
1. > 50 nM
2. < 200 nM
3. > 50 nM
4. 111 nM

Give measured IC50 for every item shown.
1. CC(C(=O)Nc1ccc(Cl)cc1)C1CCC(c2ccnc(C(F)(F)F)c2)CC1 (centres undefined)
2. OC(CC1c2cc(F)ncc2-c2cncn21)C1CCCCC1 (centres undefined)

Reply:
< 50 nM
< 100 nM
